Sourced from patent US20250019375A1

System: double stranded DNA (dsDNA)
assay-overview: Absorption/emission spectra of dyes with dsDNA
Type: physicochemical
stated-conditions: 2 μM dye + 2 μM hairpin DNA, pH 8.8 isoamplification buffer
readout-kind: Stokes shift (nm)

{"columns": ["compound-structure-string", "study-system", "readout-kind", "unit-spec", "observed-measurement"],
 "data": [
  ["CN1/C(=C/c2cc[n+](C)c(N3CCOCC3)c2)Sc2ccccc21", "double stranded DNA (dsDNA)", "Stokes shift", "nm", 38],
  ["COc1ccc2c(c1)S/C(=C\\c1cc[n+](C)c3ccccc13)N2C", "double stranded DNA (dsDNA)", "Stokes shift", "nm", 43],
  ["COc1ccc2c(c1)S/C(=C\\c1cc[n+](C)c(N3CCOCC3)c1)N2C", "double stranded DNA (dsDNA)", "Stokes shift", "nm", 50],
  ["CN(C)c1cc(/C=C2\\Sc3ccccc3N2C)cc[n+]1C", "double stranded DNA (dsDNA)", "Stokes shift", "nm", 38]
]}

###

Tested on: double stranded DNA (dsDNA)
assay-overview: Absorption/emission spectra of dyes with dsDNA
Format: physicochemical
stated-conditions: fluorescence at 62±2° C., pH 8.8 isoamplification buffer
readout-kind: λem (nm)

{"columns": ["molecule", "λem [nm]"],
 "data": [
  ["COc1ccc2c(c1)S/C(=C\\c1cc[n+](C)c(N3CCOCC3)c1)N2C [Compound 3]", 498],
  ["CN1/C(=C/c2cc[n+](C)c(N3CCOCC3)c2)Sc2ccccc21 [Compound 8]", 480],
  ["COc1ccc2c(c1)S/C(=C\\c1cc[n+](C)c3ccccc13)N2C [Compound 11]", 553],
  ["CN(C)c1cc(/C=C2\\Sc3ccccc3N2C)cc[n+]1C [Compound 10]", 481]
]}
